Consider the following molecules and their measured Percent Effect readings.
target: Protein translocase subunit SecA (Escherichia coli (strain K12)); test: Assay to Identify E. coli SecA ATPase Inhibitors; assay type: functional; design: scale not given: direction of the effect not stated beside the values; conditions: 30 µM
Entries with a potency or affinity are not part of this list.
A number alone suffices; assume %.

COCCNC(=O)C(C)n1cc(Br)cn1 (configuration not stated); -3.71
CCOCC(=O)N1CCC(Oc2ccc(C(F)(F)F)cn2)CC1; 0.852
Fc1ccc(CN2CCCN(Cc3cscn3)CC2)cc1; -1.59

Tell me measured Percent Effect for CC(C(=O)NCc1ccnc(N2CCN(C)CC2)c1)n1cccn1 (configuration not stated) please. -0.897

Tell me measured Percent Effect for CN(C)S(=O)(=O)c1ccc(OCCNCCn2cccn2)cc1 please. -6.54

Tell me measured Percent Effect for O=C(Cc1cccc(Cl)c1)N[C@@H]1CCNC[C@H]1O please. -6.4

Tell me measured Percent Effect for CCc1nnc(CN2CCN(C(=O)c3cc4ccccc4[nH]3)CC2)o1 please. -3

Tell me measured Percent Effect for CCOC(=O)NC(CNC(=O)c1ncccn1)CC(C)C (configuration not stated) please. -3.7

Tell me measured Percent Effect for O=C(c1cccnc1-n1cccn1)N1CCN(CC2CC2)CC1 please. -4.46

Tell me measured Percent Effect for CCn1c(C)nnc1CN(C)C1CCN(Cc2cnc(C)cn2)C1 (configuration not stated) please. -3.27

Tell me measured Percent Effect for Cc1cnn(CCNCC(O)COc2c(C)ccc(C)c2C)c1 (configuration not stated) please. -5.33

Tell me measured Percent Effect for Cc1ccc(C2CSCCN2C(=O)C2=CCCC2)o1 (configuration not stated) please. -5.63
